Listing of recorded pEC50 by entry.
# assay-target: XIAP BIR3 domain (Homo sapiens)
# Construct: fluorescent probe 4 and the XIAP BIR3 domain (Sino Biological, Beijing, China) were used for all measurements; purchased Sino Biological, Beijing, China
# experiment-summary: Fluorescence polarization inhibition (competition) assay
# Type: binding
# test-context: XIAP BIR3 50 nM, fluorescent probe 4 2 nM; read-out: EC50
pEC50: −log10 of the molar value.
value-type: pEC50

>>> reported_value("CN[C@@H](C)C(=O)N[C@H](C(=O)N1CCC[C@H]1C(=O)NCP(=O)(C(C)(C)C)C(C)(C)C)C1CCCCC1 [Compound 6]")
4.70
>>> reported_value("CN[C@@H](C)C(=O)N[C@H](C(=O)N1CCC[C@H]1C(=O)NC(C)P(=O)(Oc1ccccc1)Oc1ccccc1)C(C)C (stereo partly drawn) [Compound 29]")
4.50
>>> reported_value("CCC(C)C(NC(=O)[C@@H]1CCCN1C(=O)[C@@H](NC(=O)[C@H](C)NC)C(C)C)P(=O)(Oc1ccccc1)Oc1ccccc1 (stereo partly drawn) [Compound 35]")
4.75
>>> reported_value("CN[C@@H](C)C(=O)N[C@H](C(=O)N1CCC[C@H]1C(=O)NCP(=O)(c1ccccc1C)c1ccccc1C)C(C)C [Compound 18]")
4.53
>>> reported_value("CN[C@@H](C)C(=O)N[C@H](C(=O)N1CCC[C@H]1C(=O)NC(C(C)C)P(=O)(Oc1ccccc1)Oc1ccccc1)C1CCCCC1 (stereo partly drawn) [Compound 34]")
4.62
>>> reported_value("CN[C@@H](C)C(=O)N[C@H](C(=O)N1CCC[C@H]1C(=O)NCP(=O)(c1ccccc1)c1ccccc1)C1CCCCC1 [Compound 12]")
4.58

* * *

Listed next: entries and their corresponding Ki.
# assay-target: XIAP BIR3 domain (Homo sapiens, UniProt P98170)
# Construct: fluorescent probe 4 and the XIAP BIR3 domain (Sino Biological, Beijing, China) were used for all measurements
# Sequence (P98170 252-356 limits assumed): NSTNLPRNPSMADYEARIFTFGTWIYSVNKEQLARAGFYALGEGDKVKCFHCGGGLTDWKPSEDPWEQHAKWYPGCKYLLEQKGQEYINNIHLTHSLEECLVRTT
# experiment-summary: Fluorescence polarization inhibition (competition) assay
# test-context: XIAP BIR3 50 nM, fluorescent probe 4 2 nM
value-type: Ki (µM)

>>> reported_value("CN[C@@H](C)C(=O)N[C@H](C(=O)N1CCC[C@H]1C(=O)NCP(=O)(c1ccc(C)cc1)c1ccc(C)cc1)C(C)C")
15.3
>>> reported_value("CN[C@@H](C)C(=O)N[C@H](C(=O)N1CCC[C@H]1C(=O)NC(CC(C)C)P(=O)(Oc1ccccc1)Oc1ccccc1)C(C)C (stereo partly drawn)")
14
>>> reported_value("CCc1ccc(OP(=O)(Oc2ccc(CC)cc2)C(C)NC(=O)[C@@H]2CCCN2C(=O)[C@@H](NC(=O)[C@H](C)NC)C(C)C)cc1 (stereo partly drawn)")
17
>>> reported_value("CN[C@@H](C)C(=O)N[C@H](C(=O)N1CCC[C@H]1C(=O)NC(CCSC)P(=O)(Oc1ccccc1)Oc1ccccc1)C(C)C (stereo partly drawn)")
13
>>> reported_value("CCC(C)C(NC(=O)[C@@H]1CCCN1C(=O)[C@@H](NC(=O)[C@H](C)NC)C(C)C)P(=O)(Oc1ccccc1)Oc1ccccc1 (stereo partly drawn)")
8.84
>>> reported_value("CN[C@@H](C)C(=O)N[C@H](C(=O)N1CCC[C@H]1C(=O)NC(Cc1ccccc1)P(=O)(c1ccccc1)c1ccccc1)C1CCCCC1 (stereo partly drawn)")
0.64
